Below is a list of entries, each paired with its recorded pKd value.
- experimental-target: T1, Human Spindlin1 50-262 (human, UniProt Q9Y657 50-262)
- T1 construct: also called SPIN1; not shown: GST, N-terminal, cleaved
- T1 sequence (Q9Y657 50-262): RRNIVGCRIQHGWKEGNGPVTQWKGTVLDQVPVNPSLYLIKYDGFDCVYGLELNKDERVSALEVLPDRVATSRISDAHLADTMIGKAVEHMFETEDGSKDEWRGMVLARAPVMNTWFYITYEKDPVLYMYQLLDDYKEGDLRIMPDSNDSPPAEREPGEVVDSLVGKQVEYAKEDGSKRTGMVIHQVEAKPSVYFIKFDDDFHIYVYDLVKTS
- test-summary: ITC
- condition: both partners purified
pKd: −log10 of the molar value.
endpoint-name: pKd

[[record]]
binder = "Ac-CSFSSAGPCALRFTSARRME-NH2 (cysteine pairing not given here, source: synthetic peptide, bought: Scilight Biotechnology LLC) [HBx61-80 peptide]"
endpoint_name = "pKd"
measured_result = 4.26

[[record]]
binder = "Ac-PARDVLCLRPIGAESRGRPL-NH2 (source: synthetic peptide, bought: Scilight Biotechnology LLC) [HBx11-30 peptide]"
endpoint_name = "pKd"
measured_result = 4.34


From: paper PMC10400593
